Assay: qHTS assay to identify small molecule agonists of the estrogen receptor beta (ER-beta) signaling pathway - cell viability counter screen (AID 1259380); note: nearly all actives have a fitted effect of over 30% in size
Details: ER-beta-bla HEK293T viability, CellTiter-Glo luminescence, 16 h; series mostly up to 92.4 µM
Excerpt: National Center for Advancing Translational Sciences [NCATS] NIH Chemical Genomics Center [NCGC] U.S. Environmental Protection Agency [EPA] National Institutes of Environmental Health Sciences [NIEHS] National Toxicology Program [NTP] U.S. Food and Drug Administration [FDA] Estrogen receptor (ER), a nuclear hormone receptor, plays an important role in development, metabolic homeostasis and reproduction. […]
Results filed as inconclusive are left out. The source made the active and inactive calls. Calls come from the whole dose curve; as a rule, active = well fitted cell-killing curve with a large enough effect in the repeat runs; inconclusive = weak or mixed curves, or effect the other way; inactive = flat fitted curve, though single readings scatter.
The categories you may choose from are yes for active, no for inactive

[
  {
    "molecule": "C[C@]12CC[C@H]3[C@@H](CCC4=CC(=O)CC[C@@H]43)[C@@H]1CC[C@@H]2OC(=O)CCC1CCCCC1",
    "classification": "no"
  }
]

IN: Can you look up the reported call for `N#Cc1ccc(Cl)cc1` for me?
OUT: no

IN: Can you look up the reported call for `CCCCCCCCCC(=O)O[C@H]1CC[C@H]2[C@@H]3CCC4=CC(=O)CC[C@@H]4[C@H]3CC[C@]12C` for me?
OUT: no

IN: Can you look up the reported call for COC(=O)C(Br)CBr (centres undefined) for me?
OUT: no

IN: Can you look up the reported call for `Brc1ccccc1` for me?
OUT: no

IN: Can you look up the reported call for `CCCC(=O)Cl` for me?
OUT: no

IN: Can you look up the reported call for `C=CCCl` for me?
OUT: no

IN: Can you look up the reported call for C=CC(=O)OCC(C)O (centres undefined) for me?
OUT: no

IN: Can you look up the reported call for `COc1ccc(-c2ccccc2)cc1NNC(=O)OC(C)C` for me?
OUT: yes

---

target: Acetylcholinesterase (Homo sapiens) (UniProt P22303); assay: Acetylcholinesterase (AChE) small molecule antagonists: enzyme-based qHTS assay (AID 1347397); conditions: AChE enzyme activity inhibition; series mostly up to 115 µM; note: nearly all actives have a fitted effect of over 55% in size
Sequence (P22303 whole entry, looked up): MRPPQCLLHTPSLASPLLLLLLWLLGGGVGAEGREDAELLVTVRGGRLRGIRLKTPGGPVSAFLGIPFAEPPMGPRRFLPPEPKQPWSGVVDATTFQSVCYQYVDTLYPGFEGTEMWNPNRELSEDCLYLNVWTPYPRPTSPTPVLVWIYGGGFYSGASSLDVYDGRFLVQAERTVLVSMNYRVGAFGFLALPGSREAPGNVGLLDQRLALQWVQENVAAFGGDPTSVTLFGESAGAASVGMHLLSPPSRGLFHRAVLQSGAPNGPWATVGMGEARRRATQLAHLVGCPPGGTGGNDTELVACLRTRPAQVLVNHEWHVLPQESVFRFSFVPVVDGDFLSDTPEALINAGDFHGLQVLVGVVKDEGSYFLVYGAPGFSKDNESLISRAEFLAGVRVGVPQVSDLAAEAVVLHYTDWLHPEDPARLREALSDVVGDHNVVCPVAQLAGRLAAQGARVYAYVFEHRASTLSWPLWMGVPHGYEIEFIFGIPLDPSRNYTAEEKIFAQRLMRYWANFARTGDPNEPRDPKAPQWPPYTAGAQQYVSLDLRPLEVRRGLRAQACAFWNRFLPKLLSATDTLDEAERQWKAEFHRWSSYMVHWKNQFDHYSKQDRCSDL
Activity calls are given as the source filed them. Calls come from the whole dose curve.
The categories you may choose from are TRUE = active, FALSE = inactive

[
  {
    "compound": "Cc1c(F)c(F)c(COC(=O)C2C(/C=C(\\Cl)C(F)(F)F)C2(C)C)c(F)c1F (stereo not drawn)",
    "classification": "FALSE"
  },
  {
    "compound": "O=NN1CCCCCC1",
    "classification": "FALSE"
  },
  {
    "compound": "CC(C)(OO)c1ccccc1",
    "classification": "FALSE"
  },
  {
    "compound": "c1ccoc1",
    "classification": "FALSE"
  },
  {
    "compound": "N#CCc1ccccc1",
    "classification": "FALSE"
  },
  {
    "compound": "O=[N+]([O-])c1ccc(F)c([N+](=O)[O-])c1",
    "classification": "FALSE"
  },
  {
    "compound": "CCCN(CC1CC1)c1c([N+](=O)[O-])cc(C(F)(F)F)cc1[N+](=O)[O-]",
    "classification": "FALSE"
  },
  {
    "compound": "BrCCCCBr",
    "classification": "FALSE"
  }
]

IN: Can you look up the reported call for `CCCN(CCCl)c1c([N+](=O)[O-])cc(C(F)(F)F)cc1[N+](=O)[O-]` for me?
OUT: FALSE

IN: Can you look up the reported call for `CS/C(C)=N/OC(=O)N(C)SN(C)C(=O)O/N=C(\C)SC` for me?
OUT: TRUE

IN: Can you look up the reported call for `CO/C=C(/C(=O)OC)c1ccccc1COc1cccc(C(F)(F)F)n1` for me?
OUT: FALSE

IN: Can you look up the reported call for `C/C(=C\c1ccccc1)[N+](=O)[O-]` for me?
OUT: FALSE

IN: Can you look up the reported call for `Cc1ccccc1CCl` for me?
OUT: FALSE

---

Target: Estrogen receptor (Homo sapiens) (UniProt P03372)
Sequence (P03372 whole entry, looked up): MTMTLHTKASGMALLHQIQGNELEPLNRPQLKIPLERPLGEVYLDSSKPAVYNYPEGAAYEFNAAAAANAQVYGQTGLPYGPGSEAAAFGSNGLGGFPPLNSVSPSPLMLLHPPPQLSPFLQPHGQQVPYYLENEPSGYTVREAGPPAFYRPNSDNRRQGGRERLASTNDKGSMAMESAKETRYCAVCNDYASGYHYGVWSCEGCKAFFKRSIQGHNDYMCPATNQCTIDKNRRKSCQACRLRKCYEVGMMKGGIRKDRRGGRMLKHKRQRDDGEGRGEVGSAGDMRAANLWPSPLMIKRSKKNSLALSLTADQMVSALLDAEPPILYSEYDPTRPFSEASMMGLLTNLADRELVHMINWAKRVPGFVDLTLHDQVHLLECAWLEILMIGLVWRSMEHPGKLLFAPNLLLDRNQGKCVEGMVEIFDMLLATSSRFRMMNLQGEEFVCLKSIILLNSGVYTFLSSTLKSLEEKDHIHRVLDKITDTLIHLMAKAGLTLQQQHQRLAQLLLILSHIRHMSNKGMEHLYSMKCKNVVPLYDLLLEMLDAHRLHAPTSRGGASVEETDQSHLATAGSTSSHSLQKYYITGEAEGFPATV
Experiment: qHTS assay to identify small molecule agonists of the estrogen receptor alpha (ER-alpha) signaling pathway in the presence of an antagonist (AID 1259383); note: top concentration of the series differs between compounds; nearly all actives have a fitted effect of over 15% in size
Settings: VM7Luc4E2 cells, ERE-luciferase, +ICI-182,780, 22 h; series mostly up to 92.4 µM
Text: National Center for Advancing Translational Sciences [NCATS] NIH Chemical Genomics Center [NCGC] U.S. Environmental Protection Agency [EPA] National Institutes of Environmental Health Sciences [NIEHS] National Toxicology Program [NTP] Assay overview: Estrogen receptor (ER), a member of nuclear hormone receptor plays an important role in development, metabolic homeostasis and reproduction. Two subtypes of ER, ER-alpha and ER-beta, have similar expression patterns with some uniqueness in both types. […]
The source made the active and inactive calls. The call rests on the fitted dose curve.
readout.label: activation

Sample records with activation:
[
  {
    "compound": "CC1(C)CCC(Cc2ccc(Cl)cc2)C1(O)Cn1cncn1 (stereo unspecified)",
    "activation": "inactive"
  },
  {
    "compound": "Cn1cc[n+](C)c1 (tested in a mixture with another compound)",
    "activation": "inactive"
  },
  {
    "compound": "O=[Se]=O",
    "activation": "inactive"
  },
  {
    "compound": "Clc1ccc(C(OCCN2CCCCC2)c2ccccc2)cc1 (stereo unspecified)",
    "activation": "inactive"
  },
  {
    "compound": "CC(O)(CS(=O)(=O)c1ccc(F)cc1)C(=O)Nc1ccc(C#N)c(C(F)(F)F)c1 (stereo unspecified)",
    "activation": "inactive"
  }
]

Please examine the following record next.
IN: What does the data say about its activation? Entry: `O=C=Nc1ccc(Cl)cc1`
OUT: inactive

---

test: qHTS assay to identify aromatase inhibitors - cell viability counter screen (AID 743084); settings: MCF-7 aro ERE viability, CellTiter-Fluor, 24 h; series mostly up to 70.3 µM;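 note: cells stimulated with testosterone during compound exposure; nearly all actives have a fitted effect of over 55% in size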
Results filed as inconclusive are left out. Active and inactive are the calls of the source. The call rests on the fitted dose curve; in most records, active means well fitted cell-killing curve with a large enough effect in the repeat runs; inconclusive means weak or mixed curves, or effect the other way; inactive means no such curve, though single readings can be large or run the other way.
readout.label: outcome

Sample records with outcome:
[
  {
    "molecule": "Cc1cc(=O)[nH]o1",
    "reported.value": "inactive"
  },
  {
    "molecule": "CCOP(=S)(Oc1ccc([N+](=O)[O-])cc1)c1ccccc1 (stereo unspecified)",
    "reported.value": "inactive"
  },
  {
    "molecule": "NC(=O)CI",
    "reported.value": "inactive"
  },
  {
    "molecule": "O=C(NC(=O)c1c(F)cccc1F)Nc1cc(Cl)c(Oc2ncc(C(F)(F)F)cc2Cl)c(Cl)c1",
    "reported.value": "inactive"
  },
  {
    "molecule": "CS/C(C)=N/OC(=O)N(C)SN(C)C(=O)O/N=C(\\C)SC",
    "reported.value": "inactive"
  }
]

Please examine the following record next.
IN: What does the data say about its outcome? Entry: `CCCN(CCCl)c1c([N+](=O)[O-])cc(C(F)(F)F)cc1[N+](=O)[O-]`
OUT: inactive

---

test: A CellTox Green Cytotoxicity Assay to monitor cytotoxicity in HepG2 cells - 8 hour (AID 1224890); details: CellTox Green fluorescence; series mostly up to 76.8 µM; note: nearly all actives have a fitted effect of over 45% in size
Records with an inconclusive call do not appear. Calls of active or inactive are those of the source. The call rests on the fitted dose curve; in most records, active means well fitted activation curve with a large enough effect in the repeat runs; inconclusive means weak or mixed curves; inactive means flat fitted curve, though single readings scatter.
The categories you may choose from are class 1 for active, class 0 for inactive

IN: Can you look up the reported call for `CCC(Br)(CC)C(=O)NC(N)=O` for me?
OUT: class 0

IN: Can you look up the reported call for `CC(=O)C(C)(C)C` for me?
OUT: class 0

IN: Can you look up the reported call for `CO/N=C(/C(=O)OC)c1ccccc1COc1ccccc1C` for me?
OUT: class 0

IN: Can you look up the reported call for `C=C(C#N)CCC#N` for me?
OUT: class 0

IN: Can you look up the reported call for `COc1c(C(C)(C)C)cc([N+](=O)[O-])c(C)c1[N+](=O)[O-]` for me?
OUT: class 0

IN: Can you look up the reported call for `CCOP(=O)(OCC)Oc1ccc([N+](=O)[O-])cc1` for me?
OUT: class 0

IN: Can you look up the reported call for `C=CCCl` for me?
OUT: class 0

IN: Can you look up the reported call for `C/C(=C\c1ccccc1)[N+](=O)[O-]` for me?
OUT: class 0

IN: Can you look up the reported call for `C=CCN1CC[C@]23c4c5ccc(O)c4O[C@H]2C(=O)CC[C@@]3(O)[C@H]1C5` for me?
OUT: class 0

---

biological target: Thyrotropin receptor (Homo sapiens) (UniProt P16473); test: qHTS assay to identify small molecule antagonists of the thyroid stimulating hormone receptor (TSHR) signaling pathway (AID 1259385); details: TSHR-HEK293 cAMP HTRF, TSH-stimulated antagonist mode; series mostly up to 92.4 µM; note: nearly all actives have a fitted effect of over 20% in size
Sequence (P16473 whole entry, looked up): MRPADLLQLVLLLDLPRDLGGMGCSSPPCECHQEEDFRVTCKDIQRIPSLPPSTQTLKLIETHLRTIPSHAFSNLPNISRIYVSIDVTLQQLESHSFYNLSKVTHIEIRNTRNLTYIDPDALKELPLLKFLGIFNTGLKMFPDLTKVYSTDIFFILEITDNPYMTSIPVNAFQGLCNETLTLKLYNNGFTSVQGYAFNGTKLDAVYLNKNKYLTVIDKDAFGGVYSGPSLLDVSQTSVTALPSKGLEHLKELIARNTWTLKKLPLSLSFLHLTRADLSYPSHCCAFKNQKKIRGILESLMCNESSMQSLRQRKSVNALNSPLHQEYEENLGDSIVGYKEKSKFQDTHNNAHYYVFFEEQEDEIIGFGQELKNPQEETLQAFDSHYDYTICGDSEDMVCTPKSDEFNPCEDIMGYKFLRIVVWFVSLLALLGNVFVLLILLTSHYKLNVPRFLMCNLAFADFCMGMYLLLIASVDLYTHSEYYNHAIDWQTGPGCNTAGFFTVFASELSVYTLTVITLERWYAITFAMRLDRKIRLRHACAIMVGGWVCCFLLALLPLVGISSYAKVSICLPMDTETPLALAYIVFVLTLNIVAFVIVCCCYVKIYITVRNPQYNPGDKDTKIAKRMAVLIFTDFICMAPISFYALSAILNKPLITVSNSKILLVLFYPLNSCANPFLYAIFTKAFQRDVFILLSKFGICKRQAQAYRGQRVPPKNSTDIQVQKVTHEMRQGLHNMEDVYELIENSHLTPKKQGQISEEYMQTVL
Records with an inconclusive call do not appear. Activity calls are given as the source filed them. The call rests on the fitted dose curve.
readout.label: activity change, negative = inhibition

Sample records with activity change, negative = inhibition:
[
  {
    "compound": "O=[N+]([O-])C(Br)(CO)CO",
    "measured.target": "Thyrotropin receptor (Homo sapiens) (UniProt P16473)",
    "activity change, negative = inhibition": "inactive"
  },
  {
    "compound": "CCCCC(CC)COP(=O)(Oc1ccccc1)Oc1ccccc1 (configuration not stated)",
    "measured.target": "Thyrotropin receptor (Homo sapiens) (UniProt P16473)",
    "activity change, negative = inhibition": "inactive"
  },
  {
    "compound": "Brc1ccc(Oc2ccccc2)cc1",
    "measured.target": "Thyrotropin receptor (Homo sapiens) (UniProt P16473)",
    "activity change, negative = inhibition": "inactive"
  },
  {
    "compound": "O=[Se]=O",
    "measured.target": "Thyrotropin receptor (Homo sapiens) (UniProt P16473)",
    "activity change, negative = inhibition": "inactive"
  },
  {
    "compound": "CC(=O)NC1CCSC1=O (configuration not stated)",
    "measured.target": "Thyrotropin receptor (Homo sapiens) (UniProt P16473)",
    "activity change, negative = inhibition": "inactive"
  }
]

IN: What does the data say about its activity change, negative = inhibition? Entry: `C=CCCl`
OUT: inactive

IN: What does the data say about its activity change, negative = inhibition? Entry: `CCOP(=O)(OCC)Oc1ccc([N+](=O)[O-])cc1`
OUT: inactive

IN: What does the data say about its activity change, negative = inhibition? Entry: `ClC=C(Cl)Cl`
OUT: inactive

IN: What does the data say about its activity change, negative = inhibition? Entry: `CCOP(=O)(OCC)SCCSCC`
OUT: inactive

IN: What does the data say about its activity change, negative = inhibition? Entry: `NNC(=O)c1cccnc1`
OUT: inactive

IN: What does the data say about its activity change, negative = inhibition? Entry: CN1C(=O)NC(=O)C(C)(C2=CCCCC2)C1=O (configuration not stated)
OUT: inactive
